Where these numbers come from: PubChem BioAssay

Measurement Protocol: growth suppression of PTEN-deleted HCT116, pilot screen, cell-based, HCT116 clonal line, CellTiter-Glo (AID 824);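 also: 0% = 20 µM Hyamine control and 100% = vehicle cell control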
Experimental Setup: 60 h, at 10 µM
Records with an inconclusive call do not appear. The source made the active and inactive calls.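 The calls were made as follows: active = viability at or below 27.92% in each of two runs, the all-compound median minus 4 SD; inconclusive = no clear call, values can overlap the other calls; inactive = the rest.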
// one of class 1 = active, class 0 = inactive, no free text

> print(dat)
                                    compound  qualitative.label
 1  COc1ccc(C2CC(=O)C=C(NCC3CCCO3)C2)cc1 (stereo not given)            class 0
 2  O=C(c1ccco1)N1CCCC(c2nc(-c3ccc(S(=O)(=O)NCc4ccccc4)cc3)no2)C1 (stereo not given)            class 0
 3      Cc1ccccc1CSc1nnc(-c2ccco2)n1Cc1ccco1            class 0
 4     O=c1c2c(nc3c(-c4ccccc4)c[nH]n13)CCCC2            class 0
 5  O=C(c1c(Cl)nc2sccn12)N1CCN(c2cccc(Cl)c2)CC1            class 1
 6  COC(=O)CC1SC(=O)NC1=Nc1ccccc1 (stereo not given)            class 0
 7             c1ccc(-c2csc3ncn4cnnc4c23)cc1            class 0
 8  O=C1CN(C(=O)c2ccc(Br)o2)C(c2ccccc2)c2cc(Br)ccc2N1 (stereo not given)            class 0
 9           FC(F)(F)c1nnc2ccc(-n3ccnc3)nn12            class 0
10  CCCN(CCC)S(=O)(=O)c1cc(Br)cc2c1N(C(=O)CC)CC2            class 0

Ask: Kindly provide the recorded test outcome for the following compound: Cc1oc(-c2cccc(Cl)c2)nc1CN1CCC(C(=O)N2CCN(c3ccccn3)CC2)CC1
Reply: class 1

Ask: Kindly provide the recorded test outcome for the following compound: O=C(OCCOCCN=C1NS(=O)(=O)c2ccccc21)C1CC(=O)N(c2ccccc2)C1 (stereo not given)
Reply: class 0

Ask: Kindly provide the recorded test outcome for the following compound: CCC(=NCCc1ccccc1)C1=C(O)CCC1=O
Reply: class 0

Ask: Kindly provide the recorded test outcome for the following compound: O=C(NCc1ccccn1)C1CC(=O)N(C2CCCC2)C1 (stereo not given)
Reply: class 0

Ask: Kindly provide the recorded test outcome for the following compound: Cc1cc(OCC(=O)Nc2cc(-c3nn4c(C)nnc4s3)ccc2C)ccc1Cl
Reply: class 0

Ask: Kindly provide the recorded test outcome for the following compound: O=C(Nc1ccccc1O)c1ccccc1O
Reply: class 0

Ask: Kindly provide the recorded test outcome for the following compound: Cc1cccc(N=C2NC(=O)/C(=C3/C(=O)N(C)c4ccccc43)S2)c1C
Reply: class 0

Ask: Kindly provide the recorded test outcome for the following compound: O=C(Cn1c(=O)sc2ccccc21)N1CCOCC1
Reply: class 0

Ask: Kindly provide the recorded test outcome for the following compound: COc1ccc(-c2cc(N)n(S(=O)(=O)Cc3ccccc3)n2)c(OC)c1
Reply: class 0

Ask: Kindly provide the recorded test outcome for the following compound: CCCC(=O)Nc1cccc(C(=O)Nc2nccs2)c1
Reply: class 0

Ask: Kindly provide the recorded test outcome for the following compound: CC(=O)N1CCc2cc(C(=O)CN3CCN(c4ccccc4F)CC3)ccc21
Reply: class 0

Ask: Kindly provide the recorded test outcome for the following compound: CC1CN(C(=O)c2cc3ccccc3oc2=O)CC(C)O1 (stereo not given)
Reply: class 0

Ask: Kindly provide the recorded test outcome for the following compound: CCCCOC(=O)c1ccc(NS(=O)(=O)c2cc(-c3nnnn3CC)ccc2OC)cc1
Reply: class 0

Ask: Kindly provide the recorded test outcome for the following compound: CCOC(=O)C1CCCN(C(=O)c2ccccc2Oc2ccccc2)C1 (stereo not given)
Reply: class 0

Ask: Kindly provide the recorded test outcome for the following compound: COc1ccc(N(CC(=O)NCc2ccco2)S(C)(=O)=O)cc1Cl
Reply: class 0

Ask: Kindly provide the recorded test outcome for the following compound: CCOC(=O)c1c(N)sc2c(OC)c(Br)ccc12
Reply: class 0

Ask: Kindly provide the recorded test outcome for the following compound: O=C(COC(=O)C1CCCO1)Nc1cccc(C(F)(F)F)c1 (stereo not given)
Reply: class 0

Ask: Kindly provide the recorded test outcome for the following compound: Nc1c(C(=O)NCc2ccccc2)nnn1Cc1ccccc1
Reply: class 0
